Test system: ryegrass, Italian (Italian ryegrass, Lolium multiflorum)
Assay: Test C postemergence, Italian ryegrass
Assay type: in vivo
Settings: 31 g ai/ha Postemergence; visual injury, 0 to 100 scale (0 no effect, 100 complete control)
result.type: Ryegrass, Italian plant response rating

Study these solved cases before continuing.
compound: COC(=O)N(c1cc(N2CCC(OC3CC3)C2=O)c(C)cc1Cl)S(=O)(=O)C(F)(F)F (stereo not shown)
recorded.measurement: 60
//
compound: CCOC(=O)N(c1cc(N2CCC(OC3CC3)C2=O)c(C)cc1C)S(=O)(=O)C(F)(F)F (stereo not shown)
recorded.measurement: 0
//
compound: Cc1c(N2CCC(OC3CCC3)C2=O)cc(N(COC(=O)C(C)(C)C)S(=O)(=O)C(F)(F)F)c(C)c1F (stereo not shown)
recorded.measurement: 40

API: the following record is the query input.
Query block: Retrieve Ryegrass, Italian plant response rating measured for Cc1c(NS(=O)(=O)C(F)(F)F)cc(N2CCC(OCC3CCC3)C2=O)c(C)c1F (stereo not shown) and print it.
Result block: 0
